# reported ddG of mutation (higher = less stable); entries follow
B1: Ribonuclease, P00648 (parent)
chain: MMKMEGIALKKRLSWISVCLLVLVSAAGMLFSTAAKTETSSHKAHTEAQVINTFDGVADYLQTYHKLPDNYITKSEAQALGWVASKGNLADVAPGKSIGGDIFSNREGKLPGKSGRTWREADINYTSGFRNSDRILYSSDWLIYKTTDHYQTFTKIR

Variants of: B1
Conditions: Bacillus amyloliquefaciens; pH 6.3; 25 °C; Urea; Fluorescence; MES 50 mM; reversible: yes; structure 1BNI; whole UniProt chain shown

variant_string	ddG of mutation (higher = less stable), kcal/mol
L61A	4.8
T53A	2.23
I135A	4.46
H65Q	1.6
T73A	2.14
Y125F	1.5
T63S	1.87
I143A	3.52
I143V	0.98
